B1: SOAT1 (parent)
chain: KSAAMLAVFAVSAVVHEYALAVCL

Variants of: B1
protocol: protein stability index of a GFP-peptide fusion (GPS, HEK-293T) (PSI 1-6); higher = more stable;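 note: lentivirally expressed fusions sorted by FACS into six bins by GFP to DsRed ratio, PSI derived from sequencing read proportions per bin multiplied by bin number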
assayContext: c terminus: a fixed tail appended
Below, each of the variants is paired with its reported protein stability index value.

# mutantName, protein stability index
data = [
    ("A13I", 3.04),
    ("S2C", 2.54),
    ("A19H", 2.88),
    ("V11C", 2.8),
    ("H16K", 2.88),
    ("V8A", 2.89),
    ("V14N", 2),
    ("F9Q", 3.43),
    ("H16T", 2.1),
    ("M5W", 2.56),
    ("A13L", 2.81),
    ("F9P", 1.92),
    ("A19Y", 2.56),
    ("L24P", 2.62),
    ("L20T", 2.31),
    ("C23K", 3.89),
    ("A7I", 1.49),
    ("F9M", 2.35),
    ("H16P", 2.51),
    ("S2N", 2.09),
    ("V22T", 3.08),
    ("A7P", 2.58),
]
